Molecular target: T1, CEACAM1 (Sino Biological) (human, UniProt P13688 35-428, limits assumed)
T1 construct: may be the same as CEACAM1-HIS; also called hCEACAM1; biotinylated soluble CEACAM1
T1 sequence: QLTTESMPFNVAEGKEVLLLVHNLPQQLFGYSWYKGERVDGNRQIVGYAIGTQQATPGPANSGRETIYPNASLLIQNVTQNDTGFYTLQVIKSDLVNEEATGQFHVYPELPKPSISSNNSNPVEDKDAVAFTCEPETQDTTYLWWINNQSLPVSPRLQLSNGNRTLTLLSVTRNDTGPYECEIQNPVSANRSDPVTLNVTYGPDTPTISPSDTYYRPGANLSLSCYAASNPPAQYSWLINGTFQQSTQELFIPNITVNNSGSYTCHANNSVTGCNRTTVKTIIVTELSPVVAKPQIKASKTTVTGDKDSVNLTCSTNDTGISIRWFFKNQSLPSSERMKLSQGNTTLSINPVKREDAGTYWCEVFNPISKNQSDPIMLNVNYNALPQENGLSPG
Test: SPR single-cycle
measure_name: fold better than Parent (KD)

Worked cases, fold better than Parent (KD) given:
binder	fold better than Parent (KD)
He3/L19 (antibody, IgG4, V domains shown, IgG4 S241P, kappa) VH: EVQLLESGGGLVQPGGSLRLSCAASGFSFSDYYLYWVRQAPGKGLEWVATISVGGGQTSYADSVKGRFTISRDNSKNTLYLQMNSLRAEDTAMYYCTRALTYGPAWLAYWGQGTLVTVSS VL: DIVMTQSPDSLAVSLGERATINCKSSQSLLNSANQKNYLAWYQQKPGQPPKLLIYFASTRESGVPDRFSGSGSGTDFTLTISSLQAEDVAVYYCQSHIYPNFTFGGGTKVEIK	1.18 fold
He3/L2 (antibody, IgG4, V domains shown, IgG4 S241P, kappa) VH: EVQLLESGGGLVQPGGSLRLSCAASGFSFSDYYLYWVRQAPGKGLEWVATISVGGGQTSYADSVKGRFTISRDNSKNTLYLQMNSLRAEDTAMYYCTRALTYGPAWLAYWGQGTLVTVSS VL: DIVMTQSPDSLAVSLGERATINCKSSQSLLNSANQKNYLAWYQQKPGQPPKLLIYFASTRESGVPDRFSGSGSGTDFTLTISSLQAEDVAVYYCQSHYPFPYTFGGGTKVEIK	1.85 fold

From here, focus on the item given below.
Sure, the documented fold better than Parent (KD) for He3/L1 (antibody, IgG4, V domains shown, IgG4 S241P, kappa) VH: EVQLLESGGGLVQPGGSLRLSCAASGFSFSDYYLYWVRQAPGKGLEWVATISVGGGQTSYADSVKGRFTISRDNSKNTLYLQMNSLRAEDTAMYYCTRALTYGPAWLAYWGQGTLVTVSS VL: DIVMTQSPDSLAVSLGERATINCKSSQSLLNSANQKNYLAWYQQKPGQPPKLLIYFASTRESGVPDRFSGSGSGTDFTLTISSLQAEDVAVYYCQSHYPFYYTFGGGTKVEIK is 2.57 fold
